This collection of values is drawn from patent US12195439B1.

Subject of test: MT1 receptor (Homo sapiens)
Construct: host or cells: CHO cells (membrane preparation)
Sequence (P48039 whole entry): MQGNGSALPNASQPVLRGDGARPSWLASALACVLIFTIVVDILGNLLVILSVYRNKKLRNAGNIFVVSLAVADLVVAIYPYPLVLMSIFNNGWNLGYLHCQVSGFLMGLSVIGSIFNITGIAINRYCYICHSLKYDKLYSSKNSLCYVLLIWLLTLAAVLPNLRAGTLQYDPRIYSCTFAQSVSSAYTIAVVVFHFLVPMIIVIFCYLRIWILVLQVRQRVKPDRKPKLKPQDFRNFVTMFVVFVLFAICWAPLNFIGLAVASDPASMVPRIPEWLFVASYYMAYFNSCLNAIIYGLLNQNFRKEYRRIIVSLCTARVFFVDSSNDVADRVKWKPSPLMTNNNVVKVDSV
Assay: Eurofins Cerep competition binding assay at MT1 receptor
Condition label: read-out: MT1, percent of control-specific binding, 10 μM test ligand, [125I]2-iodomelatonin, recombinant receptor from CHO cells
Field: inhibition at 10 µM. Provide a value for each of the compounds that follow.
Give just the numeric value; % need not be written.

Write down measured inhibition at 10 µM (MT1 receptor (Homo sapiens)) for this compound. O=c1n(CCCN2CCN(c3cccc(Cl)c3)CC2)nc2ccccn12
14

# assay system MT1 receptor (Homo sapiens): give inhibition at 10 µM of CN(C)CCCN1c2ccccc2CCc2ccccc21
29

// fetch inhibition at 10 µM; item: N#Cc1ccc2[nH]cc(CCCCN3CCN(c4ccc5oc(C(N)=O)cc5c4)CC3)c2c1 ; system: MT1 receptor (Homo sapiens)
84

GET inhibition at 10 µM | system: MT1 receptor (Homo sapiens) | item: CC(NC(C)(C)C)C(=O)c1cccc(Cl)c1 (centres unmarked)
83

# return inhibition at 10 µM of CC(C(=O)c1ccc2c(c1)OCO2)N(C)Cc1ccccc1 (racemic) (system: MT1 receptor (Homo sapiens))
77

Please tell me the measured inhibition at 10 µM for COc1cc(CCN)cc(OC)c1OC ; system: MT1 receptor (Homo sapiens).
6

Check MT1 receptor (Homo sapiens) data and give inhibition at 10 µM for CNCC[C@H](Oc1cccc2ccccc12)c1cccs1 .
23

Give measured inhibition at 10 µM for N[C@@H](Cc1c[nH]c2ccccc12)C(=O)O (MT1 receptor (Homo sapiens)).
-2
